Molecular target: guinea pig chymase (Cavia porcellus, UniProt A7WPL7, G52S)
Construct: Thereby the mature guinea pig chymase with the correct N-terminus was formed; 26-amino acid N-terminal polypeptide with 6xHis tag and enterokinase cleavage site (N, cleaved yes)
Sequence (A7WPL7 22-247 G52S): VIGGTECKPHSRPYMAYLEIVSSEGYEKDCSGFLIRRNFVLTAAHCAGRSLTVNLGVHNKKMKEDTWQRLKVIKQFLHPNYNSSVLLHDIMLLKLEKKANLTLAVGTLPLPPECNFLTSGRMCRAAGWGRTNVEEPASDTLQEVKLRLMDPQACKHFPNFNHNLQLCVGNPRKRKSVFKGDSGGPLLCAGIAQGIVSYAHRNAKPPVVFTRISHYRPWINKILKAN
Test: Assay for chymase inhibition (fluorogenic AAPF-AMC substrate), guinea pig chymase
Details: recombinant guinea pig chymase; 0.02 mM AAPF-substrate, 1 nM chymase, pH 7.4, 30 min pre-incubation, room temperature; read-out: Inhibition of guinea pig chymase activity, IC50, GP chymase
PROPERTY_NAME: pIC50
Give bare numbers, as −log10 of the molar value.

{"COMPOUND": "CC(=O)NCCc1c(C(c2ccccc2)c2c(O)c3ccccc3n(C)c2=O)[nH]c2ccccc12 (centres unmarked) [SF2809-V]", "VALUE_MEASURED": 6.03}

Now turn to the next compound.
Query string: Name the reported pIC50 value associated with the compound COC(=O)c1ccc(NS(=O)(=O)c2sc3ccc(F)cc3c2C)c(S(C)(=O)=O)c1 [TY-51076]
Result string: 6.46

Provenance of the data: patent US20070016970A1
